Entries annotated with measured cleaved RNA product abundance
Test system: Bacillus subtilis
Test: cleaved RNA product abundance (RNA/gDNA barcode ratio) relative to median wild-type variant (ratio to wild type); higher = more accumulation of the downstream cleavage product
Conditions: experiment (reporter, strain, medium): exp 2b: truncated aprE reporter, strain BJT200; cleavage site: cggR-gapA (positions -7 to +36 mutated)

ACAGACGAAGGAGCCGCAAAGAAGTTAATAAGGGATGAATATTCCCTCAATATAAATATCTCTCACTTATTTAAA :: 0.246
ACAGACGAAGGAGCCGCAAAGAAGTTATAAAGGGATGAATGATCCCTCAATATAAATATCTCTCACTTATTTAAA :: 0.193
ACAGACGAAGGAGCCGCAAAGGAGTTATTAAGGGATGACTAATCCCTCAATATAAATATCTCTCACTTATTTAAA :: 0.423

// output cleaved RNA product abundance; input ACAGACGAAGGAGCCGCAAAGAAGTTATTAAGGGCTGAATAATCCATCAATATAAATATCTCTCACTTATTTAAA ; system Bacillus subtilis 0.084

====

System: Bacillus subtilis
Experiment: cleaved RNA product abundance (RNA/gDNA barcode ratio) relative to median wild-type variant (ratio to wild type); higher = more accumulation of the downstream cleavage product
Conditions: experiment (reporter, strain, medium): exp 8a: truncated aprE reporter, strain BJT201 with 2% xylose (RNase J1 expressed); cleavage site: glnRA (positions -5 to +31 mutated)
property: cleaved RNA product abundance
The reply should be a number, written without any unit.

Sample records with cleaved RNA product abundance:
CGACATGTCCCGCTTCTTTCATTAATCCGTTAGCAACTGTTTTACTATATACATTTACCCTTTAAGAGGAGGAAT :: 0.921
CGACATGTCCCGCTTCTTTCATTAATCCGTTAGCAACTGTTTTTGCTATATACATTTACCTTTTAAGAGGAGGAA :: 0.946
CGACATGTCCCGCTTCTTTCATTAAACCGTTAGCAACTGTTTTGCTATATACATTTACCTTTTAAGAGGAGGAAT :: 0.915

Find the measured cleaved RNA product abundance of CGACATGTCCCGCTTCTTTCATTAATCCTTTAGCAAGTGTTTTGCTATATACATTTACCTTTTAAGAGGAGGAAT and report it. 0.82

====

Test system: Bacillus subtilis
Assay: cleaved RNA product abundance (RNA/gDNA barcode ratio) relative to median wild-type variant (ratio to wild type); higher = more accumulation of the downstream cleavage product
Conditions: experiment (reporter, strain, medium): exp 2b: truncated aprE reporter, strain BJT200; cleavage site: cggR-gapA (positions -7 to +36 mutated)
Each entry gets condition not met if its cleaved RNA product abundance stays under 0.5, and condition met if its cleaved RNA product abundance is 0.5 or above.

Could you please find out whether ACAGACGAAGGAGCCGCACAGAAGTTATTAAGGGATGAATAATCCTTCAATATAAATATCTCTCACTTATTTAAA has cleaved RNA product abundance that meets 0.5 or exceeds it? condition not met

Could you please find out whether ACAGACGAAGGAGCCGCAAAGAAGCTATTAAGGGATGAATATTCCCTCAATATAAATATCTCTCACTTATTTAAA has cleaved RNA product abundance that meets 0.5 or exceeds it? condition not met

Could you please find out whether ACAGACGAAGGAGCCGCAAAGAAGTTATTAAGGGATGAATAATCCCACCATATAAATATCTCTCACTTATTTAAA has cleaved RNA product abundance that meets 0.5 or exceeds it? condition not met

Could you please find out whether ACAGACGAAGGAGCCGCAAAGAAGTTATTAAAGGATGAATAATCCCTTAATATAAATATCTCTCACTTATTTAAA has cleaved RNA product abundance that meets 0.5 or exceeds it? condition met

Could you please find out whether ACAGACGAAGGAGCCGCAAAGAAGTTATTAATGGATGAATAATCCCTTAATATAAATATCTCTCACTTATTTAAA has cleaved RNA product abundance that meets 0.5 or exceeds it? condition met

Could you please find out whether ACAGACGAAGGAGCCGCAAAGAAGTTATTAAGGGATGAATAATCCCTCAATATAATTATCTCTCACTTATTTAAA has cleaved RNA product abundance that meets 0.5 or exceeds it? condition met

Could you please find out whether ACAGACGAAGGAGCCGCAAAGAAGTTATTAAGGGATGAATAATCCCACAATATAAATAACTCTCACTTATTTAAA has cleaved RNA product abundance that meets 0.5 or exceeds it? condition not met
